# shrunken log2 fold change annotations
- Test system: Escherichia coli TOP10;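 also: peptides expressed intracellularly from a pBAD plasmid library in pooled LB shake-flask culture, induced with 0.3% L-arabinose, DNA abundance read by NGS, three biological replicates, DESeq2 with apeglm shrinkage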
- EXPERIMENT_NOTES: shrunken log2 fold change of peptide-encoding DNA abundance (4.5 h post-induction vs induction); higher = less antimicrobial activity (less host growth inhibition)
- PARTICULARS: time post-induction: 4.5 h; library: site-saturation at positions 5, 18, 19, 20
# print the numeric value only

Inquiry: Report shrunken log2 fold change for `RRIRLRPPRLPRPRPRPIQLPRP` please.
Reply text: -0.235

Inquiry: Do the same for `RRIRERPPRLPRPRPRPRKHPRP` please
Reply text: 0.0582

Inquiry: Do the same for `RRIRQRPPRLPRPRPRPPWVPRP` please
Reply text: 0.696

Inquiry: Do the same for `RRIRWRPPRLPRPRPRPYPEPRP` please
Reply text: -0.224

Inquiry: Do the same for `RRIRRRPPRLPRPRPRPGLHPRP` please
Reply text: 0.0196

Further cases:
Inquiry: Report shrunken log2 fold change for `RRIRCRPPRLPRPRPRPPLKPRP` please.
Reply text: 0.353

Inquiry: Do the same for `RRIRTRPPRLPRPRPRPLCMPRP` please
Reply text: -0.385

src = the supplement of paper PMC9112550
